# targetOrSystem: Cytochrome P450 26A1 (Homo sapiens, UniProt O43174)
# Sequence (O43174 whole entry): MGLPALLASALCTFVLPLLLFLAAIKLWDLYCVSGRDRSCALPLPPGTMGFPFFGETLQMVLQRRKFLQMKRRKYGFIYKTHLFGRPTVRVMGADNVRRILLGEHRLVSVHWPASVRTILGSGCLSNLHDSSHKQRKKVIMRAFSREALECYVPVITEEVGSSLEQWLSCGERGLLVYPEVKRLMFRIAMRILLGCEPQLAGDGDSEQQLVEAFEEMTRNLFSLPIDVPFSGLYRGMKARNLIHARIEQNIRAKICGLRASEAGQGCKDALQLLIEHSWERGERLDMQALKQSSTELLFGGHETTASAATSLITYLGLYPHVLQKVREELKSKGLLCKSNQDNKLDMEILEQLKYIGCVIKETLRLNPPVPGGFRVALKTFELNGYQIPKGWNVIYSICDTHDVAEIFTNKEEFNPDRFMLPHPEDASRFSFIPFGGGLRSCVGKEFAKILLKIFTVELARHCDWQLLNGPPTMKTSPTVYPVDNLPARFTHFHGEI
# assayOverview: Inhibition of CYP26A1 in human MCF7 cells assessed as all-trans retinoic acid metabolism
Task for the reader: assign each of the following compounds its reported IC50.
Your answer is read as µM, so omit the unit and give the number.

Specify IC50 for O=C1c2ccc(O)cc2CCC1Cc1ccccc1-c1ccccc1 (stereo not given) and stop. 10

Specify IC50 for COc1ccc2c(c1)CC/C(=C\c1ccc(O)cc1)C2=O and stop. 7

Specify IC50 for COc1ccc2c(c1)CC/C(=C\c1cc(C(F)(F)F)ccc1C(F)(F)F)C2=O and stop. 50

Specify IC50 for COc1ccc2c(c1)CCC(Cc1ccc(O)cc1)C2=O (stereo not given) and stop. 5

Specify IC50 for O=C1c2ccc(O)cc2CCC1Cc1ccc(-c2ccccc2)cc1 (stereo not given) and stop. 10

The reported measurements were obtained from ChEMBL document CHEMBL1139466.
